This section presents molecules with their documented IC50 values.
Tested on: P. falciparum IPC5202 (ARM-R)
Assay Overview: microbe, parasite or virus in culture
Format: cell-based
Test Parameters: Plasmodium falciparum, 72 h, read-out: P. falciparum IC50 nM, IPC5202 (ARM-R), 72 h incubation, pLDH method
Measured Quantity: IC50 (nM)

molecule=Clc1ccc2c(NCC34CCCN3CCC4)ccnc2c1 censoring_qualifier=< meas_value=15
molecule="C[C@H]1[C@@H](O)O[C@@H]2O[C@@]3(C)CC[C@H]4[C@H](C)CC[C@@H]1[C@@]24OO3 [DHA, dihydroartemisinin]" censoring_qualifier== meas_value=2.2

====

Assay Overview: 7-day oral dose range finding (DRF) and systemic exposure in rats
Assay type: in vivo, Sprague Dawley rats
Test Parameters: male, Sprague Dawley, rat, in vivo, po, 30 mg/kg/day, Cmax
Measured Quantity: Cmax (µg/mL)

structure_smiles_string=Clc1ccc2c(NCC34CCCN3CCC4)ccnc2c1 meas_value=0.14

Where do the numbers come from? From paper PMC10216263.
